Target: T1, human EpCAM (epithelial cell adhesion/activating molecule) (human, UniProt P16422 24-314)
T1 sequence: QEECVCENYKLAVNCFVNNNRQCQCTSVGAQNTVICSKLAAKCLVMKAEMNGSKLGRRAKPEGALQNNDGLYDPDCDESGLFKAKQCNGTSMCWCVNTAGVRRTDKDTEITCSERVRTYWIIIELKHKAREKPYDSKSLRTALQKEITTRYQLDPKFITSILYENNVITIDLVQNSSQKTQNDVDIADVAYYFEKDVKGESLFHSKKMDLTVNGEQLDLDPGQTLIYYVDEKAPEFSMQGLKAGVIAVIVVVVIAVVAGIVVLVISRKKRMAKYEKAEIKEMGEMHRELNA
Assay: cell-based or functional assay
quantity-measured: % Annexin V/PI-positive cells, NIH:OVCAR-3, 1.0 µg/ml mAb (%)

INSERT INTO measurements (binder, numeric_value) VALUES
  ('murine monoclonal antibody 12H8 (antibody, mouse IgG2a, V domains shown, Mouse IgG2a, kappa, from hybridoma; also called m342-12H8.3; m12H8) VH: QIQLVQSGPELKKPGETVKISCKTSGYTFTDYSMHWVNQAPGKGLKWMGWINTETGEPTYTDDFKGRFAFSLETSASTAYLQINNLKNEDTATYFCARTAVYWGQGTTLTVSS VL: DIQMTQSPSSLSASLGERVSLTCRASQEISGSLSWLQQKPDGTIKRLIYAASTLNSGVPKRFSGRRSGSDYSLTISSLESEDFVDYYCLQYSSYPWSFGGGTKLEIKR', 59),
  ('murine monoclonal antibody 2D11 (antibody, mouse IgG1, V domains shown, Mouse IgG1, kappa, from hybridoma; also called m322-2D11.19) VH: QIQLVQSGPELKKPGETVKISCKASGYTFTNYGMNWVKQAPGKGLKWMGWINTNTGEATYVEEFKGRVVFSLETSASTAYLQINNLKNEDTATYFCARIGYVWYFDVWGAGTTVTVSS VL: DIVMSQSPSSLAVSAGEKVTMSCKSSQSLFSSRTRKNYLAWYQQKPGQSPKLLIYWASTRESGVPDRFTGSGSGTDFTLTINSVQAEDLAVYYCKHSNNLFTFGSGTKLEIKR', 43),
  ('murine monoclonal antibody 4D2 (antibody, mouse IgG1, V domains shown, Mouse IgG1, kappa, from hybridoma; also called m338-4D2.20) VH: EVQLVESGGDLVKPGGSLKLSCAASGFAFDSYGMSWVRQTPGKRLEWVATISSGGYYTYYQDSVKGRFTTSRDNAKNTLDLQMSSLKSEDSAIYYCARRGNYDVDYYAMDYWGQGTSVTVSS VL: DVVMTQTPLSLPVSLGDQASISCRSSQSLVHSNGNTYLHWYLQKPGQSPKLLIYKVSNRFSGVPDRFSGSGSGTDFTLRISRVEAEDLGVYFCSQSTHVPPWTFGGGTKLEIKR', 40),
  ('murine monoclonal antibody 6D11 (antibody, mouse IgG1, V domains shown, Mouse IgG1, kappa, from hybridoma; also called m338-6D11.8) VH: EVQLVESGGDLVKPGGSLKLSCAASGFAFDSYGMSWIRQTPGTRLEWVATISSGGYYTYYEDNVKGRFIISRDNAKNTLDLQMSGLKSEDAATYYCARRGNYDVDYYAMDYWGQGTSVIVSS VL: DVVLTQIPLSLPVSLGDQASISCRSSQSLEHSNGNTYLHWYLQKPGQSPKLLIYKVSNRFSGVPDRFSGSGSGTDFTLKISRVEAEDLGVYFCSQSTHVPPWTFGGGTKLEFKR', 46);
